Collected pKi values appear next to each entry.
biological target: human growth hormone secretagogue receptor (hGHS-R1a) (Homo sapiens, UniProt Q92847); construct: purchased PerkinElmer BioSignal #RBHGHSM; host or cells: HEK-293, stably transfected; experiment: Competitive radioligand binding assay (ghrelin receptor), [125I]-ghrelin displacement on GHS-R/HEK 293 membranes; conditions: Table 3D; read-out: Ki
Sequence (Q92847 whole entry): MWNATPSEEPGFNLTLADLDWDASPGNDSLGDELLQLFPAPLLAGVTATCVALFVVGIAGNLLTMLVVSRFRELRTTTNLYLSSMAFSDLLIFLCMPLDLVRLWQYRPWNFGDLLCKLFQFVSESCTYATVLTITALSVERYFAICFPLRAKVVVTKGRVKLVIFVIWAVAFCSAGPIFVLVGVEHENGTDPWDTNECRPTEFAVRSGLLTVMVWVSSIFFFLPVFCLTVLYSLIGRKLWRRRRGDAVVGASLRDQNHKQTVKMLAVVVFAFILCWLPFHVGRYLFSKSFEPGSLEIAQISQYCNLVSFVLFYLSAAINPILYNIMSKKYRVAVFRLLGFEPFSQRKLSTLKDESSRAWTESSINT
pKi: −log10 of the molar value.
PROPERTY: pKi

{"COMPOUND": "CC[C@H](C)[C@@H]1NCCOc2ncccc2CCCNC(=O)[C@H](Cc2cccc(Cl)c2)NC(=O)C2(CCCC2)NC1=O [compound 449]", "PROPERTY": "pKi", "EXPERIMENTAL_RESULT": "5.00 to 6.00"}
{"COMPOUND": "CC[C@H](C)[C@@H]1NCCOc2ccccc2CCCNC(=O)[C@@H](Cc2ccc(F)cc2)NC(=O)[C@@H](COCc2ccccc2)N(C)C1=O [compound 440]", "PROPERTY": "pKi", "EXPERIMENTAL_RESULT": "6.00 to 7.00"}
{"COMPOUND": "CCCC1NCCOc2ccccc2CCCNC(=O)C(C(C)c2ccccc2)NC(=O)CN(C)C1=O (centres unmarked) [compound 448]", "PROPERTY": "pKi", "EXPERIMENTAL_RESULT": "5.00 to 6.00"}
{"COMPOUND": "CC(C)C[C@@H]1NC[C@@H](C)Oc2ccccc2CCCNC(=O)[C@H](Cc2cccc(Cl)c2)NC(=O)C2(CCCC2)NC1=O [compound 438]", "PROPERTY": "pKi", "EXPERIMENTAL_RESULT": "5.00 to 6.00"}
{"COMPOUND": "CC(C)C[C@@H]1NCCOc2ccccc2/C=C/CNC(=O)[C@H](Cc2c[nH]cn2)NC(=O)C2(CCCC2)NC1=O [444a]", "PROPERTY": "pKi", "EXPERIMENTAL_RESULT": "< 5.00"}
